experiment: Stability of linkers L1-L4 conjugated to FGF21 (LC-MS); assay type: physicochemical; conditions: +4° C., 168 hrs
value-kind: 1 linker (protein+linker) (%)
Numbers only, in %.

For orientation, consider the following solved cases.
| molecule | 1 linker (protein+linker) [%] |
| --- | --- |
| L1-FGF21ΔH-A129C: Linker-1 conjugated to FGF21ΔH-A129C protein (Table 4; Table 5 row L1) (conjugate, UniProt Q9NSA1 29-209, looked up, variant H1* A129C, Linker-1 attached) Fibroblast growth factor 21: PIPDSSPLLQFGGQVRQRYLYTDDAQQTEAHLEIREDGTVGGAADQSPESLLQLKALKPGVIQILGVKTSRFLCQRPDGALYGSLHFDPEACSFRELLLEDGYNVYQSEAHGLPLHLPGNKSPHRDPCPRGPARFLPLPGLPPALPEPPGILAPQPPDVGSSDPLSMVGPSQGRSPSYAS | 33 |
| L4-FGF21ΔH-A129C: Linker-4 conjugated to FGF21ΔH-A129C protein (Table 4; Table 5 row L4) (conjugate, UniProt Q9NSA1 29-209, looked up, variant H1* A129C, Linker-4 attached) Fibroblast growth factor 21: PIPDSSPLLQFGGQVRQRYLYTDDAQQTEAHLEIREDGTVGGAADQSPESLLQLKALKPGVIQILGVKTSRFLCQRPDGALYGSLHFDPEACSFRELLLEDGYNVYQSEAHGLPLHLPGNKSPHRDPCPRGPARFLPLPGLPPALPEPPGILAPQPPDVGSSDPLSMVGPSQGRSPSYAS | 41 |
| L2-FGF21ΔH-A129C: Linker-2 conjugated to FGF21ΔH-A129C protein (Table 4; Table 5 row L2) (conjugate, UniProt Q9NSA1 29-209, looked up, variant H1* A129C, Linker-2 attached) Fibroblast growth factor 21: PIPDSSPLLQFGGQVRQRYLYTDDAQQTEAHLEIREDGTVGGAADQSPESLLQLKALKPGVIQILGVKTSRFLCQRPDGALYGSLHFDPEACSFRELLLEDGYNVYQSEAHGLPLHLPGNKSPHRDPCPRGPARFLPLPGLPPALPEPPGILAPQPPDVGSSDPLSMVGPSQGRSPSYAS | 40 |

For the next question, use this molecule.
Would you mind telling me what 1 linker (protein+linker) value was observed for L3-FGF21ΔH-A129C: Linker-3 conjugated to FGF21ΔH-A129C protein (Table 4; Table 5 row L3) (conjugate, UniProt Q9NSA1 29-209, looked up, variant H1* A129C, Linker-3 attached) Fibroblast growth factor 21: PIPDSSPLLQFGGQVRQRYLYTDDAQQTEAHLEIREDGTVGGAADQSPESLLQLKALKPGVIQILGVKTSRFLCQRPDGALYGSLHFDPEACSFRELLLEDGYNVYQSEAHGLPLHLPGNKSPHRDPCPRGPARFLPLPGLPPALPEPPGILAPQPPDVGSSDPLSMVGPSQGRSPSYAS ?
43
